Biological target: T1, full length human tau protein 2N4R (hT40) (human, UniProt P10636 1-758)
T1 construct: recombinant; also called T441
T1 sequence (P10636 other isoform, or with tags, fused parts or gaps limits assumed): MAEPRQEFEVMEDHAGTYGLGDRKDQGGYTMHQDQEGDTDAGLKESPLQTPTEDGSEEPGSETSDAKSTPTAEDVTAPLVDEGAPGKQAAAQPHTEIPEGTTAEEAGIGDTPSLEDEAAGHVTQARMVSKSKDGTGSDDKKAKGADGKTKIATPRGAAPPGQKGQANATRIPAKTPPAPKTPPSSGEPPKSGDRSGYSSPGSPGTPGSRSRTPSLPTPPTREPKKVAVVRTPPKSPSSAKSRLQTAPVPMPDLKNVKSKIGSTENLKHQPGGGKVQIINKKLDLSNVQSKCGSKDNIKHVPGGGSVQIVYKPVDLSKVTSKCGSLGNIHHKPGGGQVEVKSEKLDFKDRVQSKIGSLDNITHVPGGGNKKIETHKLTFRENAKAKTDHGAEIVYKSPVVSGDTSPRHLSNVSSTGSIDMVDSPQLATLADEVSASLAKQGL
Experiment: SPR, hT40 immobilised, mAb analyte
The entries below are paired with their reported koff.

# example entries with known answers
| BINDER | koff |
| --- | --- |
| CB7 mAb (antibody, mouse IgG2a, V domains shown, sheep-mouse IgG2a chimeric mAb; also called CB7 antibody) VH: QVQLQESGPSLVKPSQTLSLTCTVSGFSLTNYRVGWVRQAPGKALEWVSNIRSGGTTWYNPALKSRLSITADTSKSQVSLSLSSVTTEDTAVYYCARDSSGDLYAYDYWGPGLLVTVSS VL: QAVLTQPSSVSRSLGQSVSMTCSGSSSNVGYGNYMAWFQQVPGSAPKLLIYGATSRASGVPDRFSGSRSGNTATLTISSLQAEDEADYYCASYDSTSGGVFGSGTRLTVLG | 0.00945 s⁻¹ |
| 412E10 mAb (antibody, mouse IgG2a, V domains shown, sheep-mouse IgG2a chimeric mAb) VH: QVQLQESGPSLVKPSQTLSLTCTVSGFSVISDSVAWVRQAPGKVPEWLGASGSSGNKYYNPALKSRLSITRDTSKSQVSLSLSSVTTEDTAVYYCARGIIAGVDVWGRGLLVTVSS VL: QAVLTQPSSVSGSLGQRVSITCSGSSSNVGYGNYVGWYQQVPGSAPKLLIYGTAIRASGVPDRFSGSRSGDTATLTITSLQAEDEADYYCASYQSNYAFFGSGTRLTVLG | 0.015 s⁻¹ |

Now look at this one.
Problem: Could you tell me which koff is on file for S1G2 mAb (antibody, mouse IgG2a, V domains shown, sheep-mouse IgG2a chimeric mAb; also called S1G2 antibody) VH: QVQLQESGPSLVKPSQTLSLTCTVSGFSLTSNSVGWVRQAPGKAPEWVAGIDTDGEEGYNPALNSRLSITRDTSKSQVSLSLSSVTSEDTAVYYCGRSYRADGLAYGYVQAIDYWGPGLLVTVSS VL: QAVVTQPSSVSGSLGQRVSITCSGSFIGISSVGWFQQLPGSGLRTIIVASDGRPSGVPDRFSMSKSGNTATLTISSLQAEDEADYFCGSSDRTPYTGVFGSGTRLTVLG ?
Result: 4.75e-05 s⁻¹
